Biological target: FPR1 (Homo sapiens, UniProt P21462)
Sequence (P21462 whole entry, species assumed): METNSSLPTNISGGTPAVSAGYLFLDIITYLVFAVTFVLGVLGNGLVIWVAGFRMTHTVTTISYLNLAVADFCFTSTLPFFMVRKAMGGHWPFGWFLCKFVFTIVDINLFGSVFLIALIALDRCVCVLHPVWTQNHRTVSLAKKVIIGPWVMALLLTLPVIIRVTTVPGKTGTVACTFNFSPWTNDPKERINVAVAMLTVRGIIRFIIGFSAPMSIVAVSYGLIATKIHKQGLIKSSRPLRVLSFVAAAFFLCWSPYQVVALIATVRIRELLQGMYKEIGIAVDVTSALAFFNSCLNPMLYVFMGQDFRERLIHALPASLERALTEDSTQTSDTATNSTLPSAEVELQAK
Test: Change in calcium activity by peptide, FPR1 activation effect
Settings: calcium activity (Fura-2), graded per Table 3, read-out: EC50 for [Ca^2+] FPR1
Peptide text beside a SMILES is read from it.
Could you please report measured EC50 for the items listed next?

Fill in EC50 for each of the 7 molecules listed.
1. CCCCCCCC(=O)N[C@@H](CCCNC(=N)N)C(=O)N[C@@H](CCSC)C(=O)N[C@@H](CCCNC(=N)N)C(=O)N[C@@H](Cc1ccc(O)cc1)C(=O)N[C@@H](CCCCN)C(=O)N1CCC[C@H]1C(=O)N[C@H](CCSC)C(N)=O [Peptide 53] (HELM PEPTIDE1{[CCCCCCCC(=O)[*:2]].R.M.R.Y.K.P.[dM].[am]}$$$$V2.0)
2. CSCC[C@H](NC(=O)[C@H](CCCNC(=N)N)NC(C)=O)C(=O)N[C@@H](CCCNC(=N)N)C(=O)N[C@@H](Cc1ccc(O)cc1)C(=O)N[C@@H](CCCCN)C(=O)N1CCC[C@H]1C(=O)N[C@H](CCSC)C(N)=O [Peptide 51] (HELM PEPTIDE1{[ac].R.M.R.Y.K.P.[dM].[am]}$$$$V2.0)
3. CC[C@H](C)[C@H](NC(C)=O)C(=O)N[C@@H](CCCCN)C(=O)N[C@@H](Cc1ccc(O)cc1)C(=O)N[C@@H](CCCCN)C(=O)N[C@H](C(=O)N[C@H](CCSC)C(N)=O)C(C)C [Peptide 135] (HELM PEPTIDE1{[ac].I.K.Y.K.V.[dM].[am]}$$$$V2.0)
4. CCCCCCCC(=O)N[C@@H](CCCNC(=N)N)C(=O)N[C@@H](CCSC)C(=O)N[C@@H](CCCNC(=N)N)C(=O)N[C@@H](Cc1ccc(O)cc1)C(=O)N[C@@H](Cc1c[nH]c2ccccc12)C(=O)N[C@@H](Cc1ccc(O)cc1)C(=O)N[C@H](CCSC)C(N)=O [Peptide 84] (HELM PEPTIDE1{[CCCCCCCC(=O)[*:2]].R.M.R.Y.W.Y.[dM].[am]}$$$$V2.0)
5. CSCC[C@H](NC(=O)[C@H](CCCNC(=N)N)NC(C)=O)C(=O)N[C@@H](CCCNC(=N)N)C(=O)N[C@@H](Cc1ccc(O)cc1)C(=O)N[C@@H](Cc1c[nH]c2ccccc12)C(=O)N[C@H](C(=O)N[C@H](CCSC)C(N)=O)C(C)C [Peptide 104] (HELM PEPTIDE1{[ac].R.M.R.Y.W.V.[dM].[am]}$$$$V2.0)
6. CSCC[C@@H](NC(=O)[C@@H](NC(=O)[C@H](CC(N)=O)NC(=O)[C@H](Cc1ccc(O)cc1)NC(=O)[C@H](CCCNC(=N)N)NC(=O)[C@H](Cc1c[nH]c2ccccc12)NC(=O)[C@@H](N)CCCNC(=N)N)C(C)C)C(N)=O [Peptide 159] (HELM PEPTIDE1{R.W.R.Y.N.V.[dM].[am]}$$$$V2.0)
7. CSCC[C@H](NC(=O)[C@@H](N)CCCNC(=N)N)C(=O)N[C@@H](CCCNC(=N)N)C(=O)N[C@@H](Cc1ccc(O)cc1)C(=O)N[C@@H](CCCCN)C(=O)N1CCC[C@H]1C(=O)N[C@H](CCSC)C(N)=O [Peptide 50] (HELM PEPTIDE1{R.M.R.Y.K.P.[dM].[am]}$$$$V2.0)

Result:
1. > 10 µM
2. > 10 µM
3. > 10 µM
4. > 10 µM
5. 1 to 10 µM
6. 1 to 10 µM
7. > 10 µM

Fill in EC50 for each of the 3 molecules listed.
1. CCCC(=O)N[C@@H](CCSC)C(=O)N[C@@H](CCCCN)C(=O)N[C@@H](Cc1ccc(O)cc1)C(=O)N[C@@H](CCCCN)C(=O)N[C@H](C(=O)N[C@H](CCSC)C(N)=O)C(C)C [Peptide 19] (HELM PEPTIDE1{[CCCC(=O)[*:2]].M.K.Y.K.V.[dM].[am]}$$$$V2.0)
2. CCCCCCCC(=O)N[C@@H](CCCNC(=N)N)C(=O)N[C@@H](CCSC)C(=O)N[C@@H](CCCNC(=N)N)C(=O)N[C@@H](Cc1ccc(O)cc1)C(=O)N[C@@H](Cc1c[nH]c2ccccc12)C(=O)N1CCC[C@H]1C(=O)N[C@H](CCSC)C(N)=O [Peptide 109] (HELM PEPTIDE1{[CCCCCCCC(=O)[*:2]].R.M.R.Y.W.P.[dM].[am]}$$$$V2.0)
3. CSCC[C@H](NC(=O)[C@@H](N)CCCNC(=N)N)C(=O)N[C@@H](CCCNC(=N)N)C(=O)N[C@@H](Cc1ccc(O)cc1)C(=O)N[C@@H](CCCCN)C(=O)N[C@H](C(=O)N[C@H](CCSC)C(N)=O)C(C)C [Peptide 5] (HELM PEPTIDE1{R.M.R.Y.K.V.[dM].[am]}$$$$V2.0)

Result:
> 10 µM
1 to 10 µM
> 10 µM

Data origin: patent US20250361268A1
